Tested on: A375 multi-cell spheroids with HUVEC/MSC, viability
Assay Protocol: Anticancer human tumor A375 cell line growth inhibition [GQUAD]; active = viability on the fitted dose curve at most 10% of control; inactive = the rest;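 also: spheroids exposed to compounds for seven days before readout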
Protocol Conditions: second compound 0.316 µM; first compound 3.16 µM
# valid calls are yes (active), no (inactive); nothing else

Below, 4 molecules whose answers are already recorded.
molecule="CC(C)(O)C1CCC(Nc2ccc3ncc(-c4cccc(C(F)(F)F)c4)n3n2)CC1 (stereo not given) + CN(C)c1ccc(Nc2c3ccc(NC(=O)CCN4CCCC4)cc3nc3cc(NC(=O)CCN4CCCC4)ccc23)cc1" class_name=no
molecule="CC1COCCN1c1cc(C2(O)CC3CCC(C2)O3)c2cnn(-c3ccn[nH]3)c2n1 (stereo not given) + Cc1cnc(CNC(=O)c2c(=O)c3ccc(N4CCCN(C)CC4)nc3n3c2sc2ccccc23)cn1" class_name=no
molecule="C=CCn1c(=O)c2cnc(Nc3ccc(N4CCN(C)CC4)cc3)nc2n1-c1cccc(C(C)(C)O)n1 + Cc1[nH]c2ccc(F)cc2c1-c1nc2c3cccnc3c3ncccc3c2[nH]1" class_name=no
molecule="CCCS(=O)(=O)Nc1ccc(F)c(C(=O)c2c[nH]c3ncc(-c4ccc(Cl)cc4)cc23)c1F + Cc1cnc(CNC(=O)c2c(=O)c3ccc(N4CCCN(C)CC4)nc3n3c2sc2ccccc23)cn1" class_name=yes

Ask | Look up the recorded call for C=CC(=O)N1CCN(c2nc(=O)n(-c3c(C)ccnc3C(C)C)c3nc(-c4c(O)cccc4F)c(F)cc23)C(C)C1 (stereo not given) + Cc1[nH]c2ccc(F)cc2c1-c1nc2c3cccnc3c3ncccc3c2[nH]1 in this test.
Reply | no

---

Tested on: A375 multi-cell spheroids with HUVEC/MSC, viability
Assay Protocol: Anticancer human tumor A375 cell line growth inhibition [GQUAD];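 also: spheroids exposed to compounds for seven days before readout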
Protocol Conditions: second compound 3.16 µM; first compound 0.00316 µM; active compounds read low
Excerpt: DNA G-quadruplex Stabilizer Agents in Combinations in Complex Spheroids A high-throughput screen of multi-cell type tumor spheroids was designed to identify active combinations of DNA G-quadruplex stabilizer agents and targeted small molecules. […] Compounds. […] If the clinical Cmax for an agent had not been determined, the highest concentration tested was 10 microM. […]
In this section we review reported viability, T/C values for a set of molecules.
Your answer is read as %, so omit the unit and give the number.

Below are worked cases with known answers.
molecule="CC[C@@]1(O)C(=O)OCc2c1cc1n(c2=O)Cc2cc3c(CN(C)C)c(O)ccc3nc2-1 + Cc1[nH]c2ccc(F)cc2c1-c1nc2c3cccnc3c3ncccc3c2[nH]1" measured_quantity="viability, T/C" unit_symbol=% test_result=88.1
molecule="CC[C@@]1(O)C(=O)OCc2c1cc1n(c2=O)Cc2cc3c(CN(C)C)c(O)ccc3nc2-1 + CN(C)c1ccc(Nc2c3ccc(NC(=O)CCN4CCCC4)cc3nc3cc(NC(=O)CCN4CCCC4)ccc23)cc1" measured_quantity="viability, T/C" unit_symbol=% test_result=102
molecule="CCc1c2c(nc3ccc(O)cc13)-c1cc3c(c(=O)n1C2)COC(=O)[C@]3(O)CC + Cc1cnc(CNC(=O)c2c(=O)c3ccc(N4CCCN(C)CC4)nc3n3c2sc2ccccc23)cn1" measured_quantity="viability, T/C" unit_symbol=% test_result=15.9
molecule="Cn1ncnc1[C@H]1c2n[nH]c(=O)c3cc(F)cc(c23)N[C@@H]1c1ccc(F)cc1 + Cc1[nH]c2ccc(F)cc2c1-c1nc2c3cccnc3c3ncccc3c2[nH]1" measured_quantity="viability, T/C" unit_symbol=% test_result=93.6
molecule="Cn1ncnc1[C@H]1c2n[nH]c(=O)c3cc(F)cc(c23)N[C@@H]1c1ccc(F)cc1 + CN(C)c1ccc(Nc2c3ccc(NC(=O)CCN4CCCC4)cc3nc3cc(NC(=O)CCN4CCCC4)ccc23)cc1" measured_quantity="viability, T/C" unit_symbol=% test_result=98
molecule="Cc1[nH]c2ccccc2c1CCNCc1ccc(/C=C/C(=O)NO)cc1 + CN(C)c1ccc(Nc2c3ccc(NC(=O)CCN4CCCC4)cc3nc3cc(NC(=O)CCN4CCCC4)ccc23)cc1" measured_quantity="viability, T/C" unit_symbol=% test_result=106

Now turn to the next molecule.
Measured viability, T/C of CCc1c2c(nc3ccc(O)cc13)-c1cc3c(c(=O)n1C2)COC(=O)[C@]3(O)CC + Cc1[nH]c2ccc(F)cc2c1-c1nc2c3cccnc3c3ncccc3c2[nH]1 : 20.9

---

Tested on: A375 multi-cell spheroids with HUVEC/MSC, viability
Assay Protocol: Anticancer human tumor A375 cell line growth inhibition [GQUAD]; active = viability on the fitted dose curve at most 10% of control; inactive = the rest;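 also: spheroids exposed to compounds for seven days before readout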
Protocol Conditions: second compound 0.316 µM; first compound 3.16 µM
# valid calls are active, inactive; nothing else

Below, 3 molecules whose answers are already recorded.
molecule="CC(C)(O)C1CCC(Nc2ccc3ncc(-c4cccc(C(F)(F)F)c4)n3n2)CC1 (stereo not given) + Cc1cnc(CNC(=O)c2c(=O)c3ccc(N4CCCN(C)CC4)nc3n3c2sc2ccccc23)cn1" class_name=inactive
molecule="O=c1[nH]cc(F)c(=O)[nH]1 + CN(C)c1ccc(Nc2c3ccc(NC(=O)CCN4CCCC4)cc3nc3cc(NC(=O)CCN4CCCC4)ccc23)cc1" class_name=inactive
molecule="CCCS(=O)(=O)Nc1ccc(F)c(C(=O)c2c[nH]c3ncc(-c4ccc(Cl)cc4)cc23)c1F + Cc1[nH]c2ccc(F)cc2c1-c1nc2c3cccnc3c3ncccc3c2[nH]1" class_name=active

Ask | Look up the recorded call for COc1ccc([C@@H](O)c2cc(-c3ncnc4cc(N5CCOCC5)ccc34)c(F)cc2Cl)nn1 + Cc1[nH]c2ccc(F)cc2c1-c1nc2c3cccnc3c3ncccc3c2[nH]1 in this test.
Reply | inactive

Ask | Look up the recorded call for C=CCn1c(=O)c2cnc(Nc3ccc(N4CCN(C)CC4)cc3)nc2n1-c1cccc(C(C)(C)O)n1 + Cc1cnc(CNC(=O)c2c(=O)c3ccc(N4CCCN(C)CC4)nc3n3c2sc2ccccc23)cn1 in this test.
Reply | inactive

Ask | Look up the recorded call for O=c1[nH]cc(F)c(=O)[nH]1 + Cc1[nH]c2ccc(F)cc2c1-c1nc2c3cccnc3c3ncccc3c2[nH]1 in this test.
Reply | inactive

---

In this section we review reported viability, T/C values for a set of molecules.
Tested on: A375 multi-cell spheroids with HUVEC/MSC, viability
Assay Protocol: Anticancer human tumor A375 cell line growth inhibition [GQUAD];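 also: spheroids exposed to compounds for seven days before readout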
Protocol Conditions: second compound 3.16 µM; first compound 0.1 µM; active compounds read low
Your answer is read as %, so omit the unit and give the number.

Below are worked cases with known answers.
molecule="Nc1ccn(C2OC(CO)C(O)C2(F)F)c(=O)n1 (centres undefined) + CN(C)c1ccc(Nc2c3ccc(NC(=O)CCN4CCCC4)cc3nc3cc(NC(=O)CCN4CCCC4)ccc23)cc1" target_desc="A375 multi-cell spheroids with HUVEC/MSC, viability" test_result=6.34
molecule="COc1ncnc(C2CC2)c1-c1ncc2cnn(Cc3ccc(-c4nc(C(F)(F)F)cn4C(C)C)cc3)c2n1 + CN(C)c1ccc(Nc2c3ccc(NC(=O)CCN4CCCC4)cc3nc3cc(NC(=O)CCN4CCCC4)ccc23)cc1" target_desc="A375 multi-cell spheroids with HUVEC/MSC, viability" test_result=102
molecule="C=CCn1c(=O)c2cnc(Nc3ccc(N4CCN(C)CC4)cc3)nc2n1-c1cccc(C(C)(C)O)n1 + Cc1cnc(CNC(=O)c2c(=O)c3ccc(N4CCCN(C)CC4)nc3n3c2sc2ccccc23)cn1" target_desc="A375 multi-cell spheroids with HUVEC/MSC, viability" test_result=33.6
molecule="COc1ncnc(C2CC2)c1-c1ncc2cnn(Cc3ccc(-c4nc(C(F)(F)F)cn4C(C)C)cc3)c2n1 + Cc1[nH]c2ccc(F)cc2c1-c1nc2c3cccnc3c3ncccc3c2[nH]1" target_desc="A375 multi-cell spheroids with HUVEC/MSC, viability" test_result=72.5
molecule="COc1cccc2c1C(=O)c1c(O)c3c(c(O)c1C2=O)CC(O)(C(=O)CO)CC3OC1CC(N)C(O)C(C)O1 (centres undefined) + Cc1[nH]c2ccc(F)cc2c1-c1nc2c3cccnc3c3ncccc3c2[nH]1" target_desc="A375 multi-cell spheroids with HUVEC/MSC, viability" test_result=60.1
molecule="CC1COCCN1c1cc(C2(O)CC3CCC(C2)O3)c2cnn(-c3ccn[nH]3)c2n1 (centres undefined) + Cc1[nH]c2ccc(F)cc2c1-c1nc2c3cccnc3c3ncccc3c2[nH]1" target_desc="A375 multi-cell spheroids with HUVEC/MSC, viability" test_result=17.9
molecule="O=C(NO)c1cnc(N2CCN(S(=O)(=O)c3ccc4ccccc4c3)CC2)nc1 + Cc1[nH]c2ccc(F)cc2c1-c1nc2c3cccnc3c3ncccc3c2[nH]1" target_desc="A375 multi-cell spheroids with HUVEC/MSC, viability" test_result=89.5
molecule="CC1COCCN1c1cc(C2(O)CC3CCC(C2)O3)c2cnn(-c3ccn[nH]3)c2n1 (centres undefined) + Cc1cnc(CNC(=O)c2c(=O)c3ccc(N4CCCN(C)CC4)nc3n3c2sc2ccccc23)cn1" target_desc="A375 multi-cell spheroids with HUVEC/MSC, viability" test_result=27.4

Measured viability, T/C of CC1COCCN1c1cc(-c2ccnn2C)c2ccnc(-c3ccn[nH]3)c2n1 (centres undefined) + Cc1[nH]c2ccc(F)cc2c1-c1nc2c3cccnc3c3ncccc3c2[nH]1 : 29.4

Measured viability, T/C of O=c1[nH]cc(F)c(=O)[nH]1 + CN(C)c1ccc(Nc2c3ccc(NC(=O)CCN4CCCC4)cc3nc3cc(NC(=O)CCN4CCCC4)ccc23)cc1 : 98.1
